- assayProcedure: NCI Yeast Anticancer Drug Screen. Data for the rad50 strain (AID 155)
- conditionNotes: S. cerevisiae rad50 strain growth inhibition; at 50.0 µM
About 79,000 compounds went through this panel and 15% of them were active in at least one assay; those are over-represented in the sample as a whole. Activity calls are given as the source filed them. No stated cut-off is given here; in the data, active means growth inhibition above about 70%; inactive means the rest.
Choose one outcome from this list and give only that: yes = active, no = inactive

compound: C/C(=N\Nc1ccc([N+](=O)[O-])cc1[N+](=O)[O-])c1sc(-n2nc(-c3ccccc3)cc2-c2ccccc2)nc1C
class: yes

Record lookup: outcome of this test for CC(=O)Nc1ccc2c(c1)Cc1cc(N=C3C=CC(=O)O3)ccc1-2 ? no

Record lookup: outcome of this test for CSc1nc(C)c(CCOC(C)=O)c(N=P(c2ccccc2)(c2ccccc2)c2ccccc2)n1 ? yes

Record lookup: outcome of this test for Cc1cc(C(C)(C)C)c(OCCCN2CCOCC2)c(C(C)(C)C)c1 ? yes

Record lookup: outcome of this test for Cc1ccccc1N=C(NO)c1ccccc1 ? yes

Record lookup: outcome of this test for CCCC(O)C1CC(C(C)C)CCC1C (stereo unspecified) ? no

Data provenance: PubChem BioAssay (NCI)
